target_system: Mu-type opioid receptor (Rattus norvegicus, UniProt P33535)
Sequence (P33535 whole entry): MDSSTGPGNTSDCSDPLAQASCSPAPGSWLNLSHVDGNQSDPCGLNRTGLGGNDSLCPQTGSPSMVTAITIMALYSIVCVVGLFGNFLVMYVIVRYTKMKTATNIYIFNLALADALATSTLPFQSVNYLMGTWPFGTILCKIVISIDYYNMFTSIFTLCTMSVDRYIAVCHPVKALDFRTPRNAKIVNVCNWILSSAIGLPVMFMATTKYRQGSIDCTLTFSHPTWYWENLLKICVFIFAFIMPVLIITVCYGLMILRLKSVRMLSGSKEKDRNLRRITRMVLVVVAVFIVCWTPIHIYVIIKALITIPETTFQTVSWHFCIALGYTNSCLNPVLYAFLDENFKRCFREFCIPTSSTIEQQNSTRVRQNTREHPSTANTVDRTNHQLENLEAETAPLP
property_measured: Ki (nM)
One number for each entry, in nM.

Problem: Which Ki is listed for H-YGGFMTSEKSQTPLVTLFKNAIVKNAHKKGQ-OH [Beta-Endorphin] ?
Solution: 1.7
